Entries and their residuum percentage values follow.
type: physicochemical; settings: sealed brown vials, 576 h
Dear colleague, please send the value followed by its unit.

Answered examples (4):
- CO/N=C(\C(=O)N[C@@H]1C(=O)N2C(C(=O)[O-])=C(C[N+]34CCC(CC3)CC4)CS[C@H]12)c1csc(N)n1 [Hemihydrate]: 86.3%
- CO/N=C(\C(=O)N[C@@H]1C(=O)N2C(C(=O)[O-])=C(C[N+]34CCC(CC3)CC4)CS[C@H]12)c1csc(N)n1 [Anhydride]: 86.0%
- CO/N=C(\C(=O)N[C@@H]1C(=O)N2C(C(=O)[O-])=C(C[N+]34CCC(CC3)CC4)CS[C@H]12)c1csc(N)n1 [Monohydrate]: 85.5%
- CO/N=C(\C(=O)N[C@@H]1C(=O)N2C(C(=O)[O-])=C(C[N+]34CCC(CC3)CC4)CS[C@H]12)c1csc(N)n1 [Trihydrate]: 86.8%

Now turn to the next molecule.
Lookup result for CO/N=C(\C(=O)N[C@@H]1C(=O)N2C(C(=O)[O-])=C(C[N+]34CCC(CC3)CC4)CS[C@H]12)c1csc(N)n1 [Amorphous substance] ; measured residuum percentage: 0%

---

assay type: physicochemical; details: sealed brown vials, 240 h
Recorded residuum percentage values for a group of molecules are listed next.
Don't forget the unit after the value.

Answered cases to consult:
- CO/N=C(\C(=O)N[C@@H]1C(=O)N2C(C(=O)[O-])=C(C[N+]34CCC(CC3)CC4)CS[C@H]12)c1csc(N)n1 [Monohydrate]: 96.1%
- CO/N=C(\C(=O)N[C@@H]1C(=O)N2C(C(=O)[O-])=C(C[N+]34CCC(CC3)CC4)CS[C@H]12)c1csc(N)n1 [Trihydrate]: 97.0%
- CO/N=C(\C(=O)N[C@@H]1C(=O)N2C(C(=O)[O-])=C(C[N+]34CCC(CC3)CC4)CS[C@H]12)c1csc(N)n1 [Amorphous substance]: 0%
- CO/N=C(\C(=O)N[C@@H]1C(=O)N2C(C(=O)[O-])=C(C[N+]34CCC(CC3)CC4)CS[C@H]12)c1csc(N)n1 [Hemihydrate]: 98.3%

Attention now turns to another entry.
Value of measured residuum percentage for the entry CO/N=C(\C(=O)N[C@@H]1C(=O)N2C(C(=O)[O-])=C(C[N+]34CCC(CC3)CC4)CS[C@H]12)c1csc(N)n1 [Anhydride] : 97.5%
